Please provide measured abundance fitness for the entries that follow.
B1: Transcription intermediary factor 1-beta, residues 620 to 671; numbered along this chain, Q13263 (parent)
chain: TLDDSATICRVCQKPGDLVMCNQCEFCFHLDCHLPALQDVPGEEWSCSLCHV

Variants of: B1
Experiment: abundance fitness (aPCA) (normalised: wild type 0, dead -1); higher = more abundant; growth selection in yeast, the domain comes from the species named
Conditions: Homo sapiens
Answers are plain numbers.

Here are 5 variants together with their reported answers.
{"VARIANT SPEC": "Q23I", "abundance fitness": -0.373}
{"VARIANT SPEC": "R10M", "abundance fitness": -0.113}
{"VARIANT SPEC": "M20L", "abundance fitness": -0.391}
{"VARIANT SPEC": "G42E", "abundance fitness": -0.139}
{"VARIANT SPEC": "L30E", "abundance fitness": -0.196}

List the reported abundance fitness of each variant below.
1. Q38M
2. Q13H
3. L37S
4. Q23Y

Result:
1: -0.443; 2: 0.062; 3: -0.071; 4: -0.336
